Where do these numbers come from? They come from patent US7776918B2.

# Experiment Summary: Cytotoxicity test (Cell Counting Kit-8)
# Format: cell-based
# Condition Notes: human, Firefly luciferase HCV replicon cells (3-1); Cell Counting Kit-8, absorbance 450 nm, after 3 days culture with compound
Experimental Readout: CC50 at 3 days

Recorded CC50 at 3 days, per entry:
1. CCCCCCCC(=O)CCCCCC/C=C/[C@H](C(=O)N[C@@H](Cc1ccc(OCC=C(C)C)cc1)C(=O)O)[C@@](O)(CC(=O)O)C(=O)O	> 5 µM
2. CCCCCCCC(=O)CCCCCC/C=C/[C@H](C(=O)N[C@@H](Cc1ccc(O)cc1)C(=O)O)[C@@](O)(CC(=O)O)C(=O)O	> 5 µM
3. CCCCCCCCCCCCCC/C=C/[C@H](C(=O)N[C@@H](Cc1ccc(OCC=C(C)C)cc1)C(=O)O)[C@@](O)(CC(=O)O)C(=O)O (mixture of isomers)	> 50 µM
4. CCCCCCCC(=O)CCCCCC/C=C/[C@H](C(=O)N[C@@H](Cc1ccc(OCCCC)cc1)C(=O)O)[C@@](O)(CC(=O)O)C(=O)O	> 1 µM

Recorded result, `CCCCCCCC(=O)CCCCCC/C=C/[C@H](C(=O)N[C@@H](Cc1ccc(OCC=C(C)C)cc1)C(N)=O)[C@@](O)(CC(N)=O)C(N)=O` , CC50 at 3 days: > 5 µM

// CC50 at 3 days lookup, molecule = `CCCCCCCC(=O)CCCCCC/C=C/[C@H](C(=O)N[C@@H](Cc1ccc(OCCC(C)C)cc1)C(=O)O)[C@@](O)(CC(=O)O)C(=O)O` , result: > 5 µM

###

Below, each entry is listed with its recorded CC50.
# System: Firefly luciferase HCV replicon cells (3-1)
# Experiment Summary: Cytotoxicity test (Cell Counting Kit-8)
# Format: cell-based
# Condition Notes: Cell Counting Kit-8, absorbance 450 nm, after 3 days culture with compound

The reported value for `CCCCCCCC(=O)CCCCCC/C=C/[C@H](C(=O)N[C@@H](Cc1ccc(OC)c(OC)c1)C(=O)O)[C@@](O)(CC(=O)O)C(=O)O` in terms of CC50 is > 1000 nM

Briefly, CC50 measured for `CC#CCOc1ccc(C[C@H](NC(=O)[C@@H](/C=C/CCCCCCC(=O)CCCCCCC)[C@@](O)(CC(=O)O)C(=O)O)C(=O)O)cc1` : > 5000 nM

###

# Experiment Summary: Cytotoxicity test (Cell Counting Kit-8)
# Type: cell-based
# Condition Notes: human, Firefly luciferase HCV replicon cells (3-1); Cell Counting Kit-8, absorbance 450 nm, after 3 days culture with compound
Reported CC50 at 3 days values for the following compounds.

1) CCCCCCCC(=O)CCCCCCCC[C@H](C(=O)N[C@@H](Cc1ccc(OCCC(C)C)cc1)C(=O)O)[C@@](O)(CC(=O)O)C(=O)O [Compound 12]	> 5 µM

Data point: CCCCCCCC(O)CCCCCC/C=C/[C@H](C(=O)N[C@@H](Cc1ccc(OCC=C(C)C)cc1)C(=O)O)[C@@](O)(CC(=O)O)C(=O)O (stereo partly drawn) [Compound 8] ; CC50 at 3 days = > 5 µM

In plain terms, CCCCCCCC(=O)CCCCCC/C=C/[C@H](C(=O)N[C@@H](Cc1ccc(OC)cc1)C(=O)O)[C@@](O)(CC(=O)O)C(=O)O [Compound 26] has a documented CC50 at 3 days of > 1 µM

Lab note: C=CCOc1ccc(C[C@H](NC(=O)[C@@H](/C=C/CCCCCCC(=O)CCCCCCC)[C@@](O)(CC(=O)O)C(=O)O)C(=O)O)cc1 [Compound 25] gave CC50 at 3 days of > 1 µM

// field: CC50 at 3 days; key: CCCCCCC/C(CCCCCC/C=C/[C@H](C(=O)N[C@@H](Cc1ccc(OCC=C(C)C)cc1)C(=O)O)[C@@](O)(CC(=O)O)C(=O)O)=N/OCCN [Compound 14] ; value = 22 µM

Short answer for CCCCCCCC(=O)CCCCCC/C=C/[C@H](C(=O)N[C@@H](Cc1c[nH]c2ccccc12)C(=O)O)[C@@](O)(CC(=O)O)C(=O)O [Compound 5] : CC50 at 3 days was > 1 µM
